# Assay Remarks: Selectivity index, ratio of IC50 for histone activated chicken PDE6 to IC50 for rat lung PDE5
Assay Readout: Ratio IC50

Field request: Ratio IC50 | item: NS(=O)(=O)c1cccc(Nc2nc(NCc3cccs3)c3ccccc3n2)c1
4.04

For c1csc(CNc2nc(Nc3ccc(N4CCOCC4)cc3)nc3ccccc23)c1 , what is its reported Ratio IC50?
1.19

Ratio IC50 for NS(=O)(=O)c1cccc(Nc2nc(NCc3ccco3)c3ccccc3n2)c1 ?
1.64

Given the entry c1ccc(CNc2nc(Nc3ccccc3)nc3ccccc23)cc1 , report its measured Ratio IC50.
0.65

Given the compound c1ccc(CNc2nc(Nc3ccc(N4CCOCC4)cc3)nc3ccccc23)cc1 , what is its reported Ratio IC50?
0.86

Need Ratio IC50 of NS(=O)(=O)c1cccc(Nc2nc(NCc3ccccc3)c3ccccc3n2)c1 , thanks.
4.61
